Tested on: CCRF-CEM leukemia
Assay: NCI tumour cell line growth inhibition, 48 h
measurement label: TGI

Some solved entries appear below for comparison.
1) CON(C)C(=O)C(C)N(Cc1ccccc1)Cc1ccccc1 (stereo not given) ... > 100 µM
2) CC(=O)[O-].CC(=O)[O-].O=C(N/N=C/c1cc(Cl)cc(Cl)c1O)c1ccncc1.[Cu+2] ... > 100 µM
3) O=c1c(F)cn(Cc2c(Cl)cccc2Cl)c(=O)n1Cc1c(Cl)cccc1Cl ... > 31.6 µM
4) CCOC(=O)c1csc(NC(=O)CN2CCCC2)n1 ... > 100 µM

Query block: Need TGI of COc1ccc(C2c3cc4c(cc3OC3(OC)COC(=O)C23)OCO4)c(OC)c1 (stereo not given) , thanks.
Result block: > 46.8 µM
